# system.under.test: Ba/F3 KIF5B-RET cells (Homo sapiens)
# Construct: fused on or other part: P33176 (Kinesin-1 heavy chain)
# Sequence (P07949 whole entry, change not shown, the tested form may be a part): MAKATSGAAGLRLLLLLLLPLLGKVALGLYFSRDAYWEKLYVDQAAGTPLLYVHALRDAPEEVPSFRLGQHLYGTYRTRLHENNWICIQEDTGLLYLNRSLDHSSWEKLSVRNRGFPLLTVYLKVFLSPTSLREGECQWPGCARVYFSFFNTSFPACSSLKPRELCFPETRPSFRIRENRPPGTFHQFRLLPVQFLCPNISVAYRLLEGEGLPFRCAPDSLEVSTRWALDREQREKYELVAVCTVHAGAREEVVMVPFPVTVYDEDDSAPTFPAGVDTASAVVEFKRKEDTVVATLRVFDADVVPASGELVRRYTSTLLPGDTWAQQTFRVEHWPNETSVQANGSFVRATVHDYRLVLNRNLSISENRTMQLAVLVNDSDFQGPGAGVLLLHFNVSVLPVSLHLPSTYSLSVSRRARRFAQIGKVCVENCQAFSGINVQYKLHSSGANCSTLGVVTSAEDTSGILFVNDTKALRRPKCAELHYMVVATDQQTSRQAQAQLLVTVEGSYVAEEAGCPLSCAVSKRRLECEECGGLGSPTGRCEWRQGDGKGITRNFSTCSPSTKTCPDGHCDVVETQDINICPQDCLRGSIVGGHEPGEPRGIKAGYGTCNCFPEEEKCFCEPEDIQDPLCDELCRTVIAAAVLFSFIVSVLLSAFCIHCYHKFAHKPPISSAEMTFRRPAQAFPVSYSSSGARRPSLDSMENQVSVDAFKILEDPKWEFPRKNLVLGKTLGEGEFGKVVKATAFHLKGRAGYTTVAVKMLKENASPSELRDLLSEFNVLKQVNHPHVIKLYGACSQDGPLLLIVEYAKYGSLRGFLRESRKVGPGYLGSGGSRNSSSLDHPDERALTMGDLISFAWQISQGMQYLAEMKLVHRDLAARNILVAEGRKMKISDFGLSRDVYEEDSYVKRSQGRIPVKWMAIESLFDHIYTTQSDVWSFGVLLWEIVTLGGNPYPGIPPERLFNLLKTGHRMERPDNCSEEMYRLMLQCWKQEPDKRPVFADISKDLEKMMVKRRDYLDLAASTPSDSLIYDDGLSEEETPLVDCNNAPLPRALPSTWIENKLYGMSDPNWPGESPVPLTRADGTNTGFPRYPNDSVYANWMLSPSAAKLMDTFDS
# assay.info: Inhibition of proliferation of Ba/F3 KIF5B-RET cells (CellTiter-Glo)
# Assay type: cell-based
# conditions.used: 72 to 144 hours
Record form. Attribute: IC50. Fill in for each entry.
Response body: numeric value in nM, unit text excluded.

IC50 for Ba/F3 KIF5B-RET cells (Homo sapiens) with input `COc1ccc(CN2C3CC2CN(c2ccc(-c4cc(OCC5(C#N)CCOCC5)cn5ncc(C#N)c45)cn2)C3)cn1` equals 34

IC50 for Ba/F3 KIF5B-RET cells (Homo sapiens) with input COc1ccc(CN2C3CC2CN(c2ccc(-c4cc(OCC[S+](C)[O-])cn5ncc(C#N)c45)cn2)C3)cn1 (stereo not drawn) equals 24.6

IC50 for Ba/F3 KIF5B-RET cells (Homo sapiens) with input `Cc1ccc(F)cc1C(=O)NC1(C)CCN(c2ccc(-c3cc(C#CC(C)(C)N)cn4ncc(C#N)c34)cn2)CC1` equals 18.5

IC50 for Ba/F3 KIF5B-RET cells (Homo sapiens) with input `[2H]C([2H])([2H])Oc1ccc(CN2C3CC2CN(c2ccc(-c4cc(C#CC(C)(C)O)cn5ncc(C#N)c45)cn2)C3)cn1` equals 13.5

IC50 for Ba/F3 KIF5B-RET cells (Homo sapiens) with input `COc1ccc(CN2C3CC2CN(c2ccc(-c4cc(N5CC(C(C)(C)O)C5)cn5ncc(C#N)c45)cn2)C3)cn1` equals 13

IC50 for Ba/F3 KIF5B-RET cells (Homo sapiens) with input `CC1(O)CN(c2cc(-c3ccc(N4CCC(C)(NC(=O)c5ncccc5Cl)CC4)nc3)c3c(C#N)cnn3c2)C1` equals 22.5

IC50 for Ba/F3 KIF5B-RET cells (Homo sapiens) with input `COc1ccc(CN2C3CC2CN(c2ccc(-c4cc(N5CC(C)(C#N)C5)cn5ncc(C#N)c45)cn2)C3)cn1` equals 4.79

IC50 for Ba/F3 KIF5B-RET cells (Homo sapiens) with input `COc1ccc(CN2C3CC2CN(c2ccc(-c4cc(OCC56CC(CO)(C5)C6)cn5ncc(C#N)c45)cn2)C3)cn1` equals 7.06

IC50 for Ba/F3 KIF5B-RET cells (Homo sapiens) with input `COc1ccc(CN2C3CC2CN(c2ccc(-c4cc(C#CC5(O)COC5)cn5ncc(C#N)c45)cn2)C3)cn1` equals 23.9

IC50 for Ba/F3 KIF5B-RET cells (Homo sapiens) with input `COc1ncc(CN2C3CC2CN(c2ccc(-c4cc(C#C[C@@H](C)O)cn5ncc(C#N)c45)cn2)C3)cc1F` equals 26.3

IC50 for Ba/F3 KIF5B-RET cells (Homo sapiens) with input `C#C[C@](C)(O)COc1cc(-c2ccc(N3CC4CC(C3)N4Cc3cnc(OC)c(F)c3)nc2)c2c(C#N)cnn2c1` equals 7.03

IC50 for Ba/F3 KIF5B-RET cells (Homo sapiens) with input `COc1ncc(CN2C3CC2CN(c2ccc(-c4cc(OCC5(C#N)CCOCC5)cn5ncc(C#N)c45)cn2)C3)cc1F` equals 18

IC50 for Ba/F3 KIF5B-RET cells (Homo sapiens) with input COCC(C)(O)C#Cc1cc(-c2ccc(N3CC4CC(C3)N4Cc3cnc(OC)c(F)c3)nc2)c2c(C#N)cnn2c1 (stereo not drawn) equals 16.8

IC50 for Ba/F3 KIF5B-RET cells (Homo sapiens) with input `COc1ncc(CN2C3CC2CN(c2ccc(-c4cc(C#CC5(O)CCOCC5)cn5ncc(C#N)c45)cn2)C3)cc1F` equals 13.7

IC50 for Ba/F3 KIF5B-RET cells (Homo sapiens) with input COc1ncc(CN2C3CC2CN(c2ccc(-c4cc(OCC5CC(C)(O)C5)cn5ncc(C#N)c45)cn2)C3)cc1F (stereo not drawn) equals 8.59

IC50 for Ba/F3 KIF5B-RET cells (Homo sapiens) with input `COc1ccc(CN2C3CC2CN(c2ccc(-c4cc(OCC56CC(C#N)(C5)C6)cn5ncc(C#N)c45)cn2)C3)cn1` equals 30.6

IC50 for Ba/F3 KIF5B-RET cells (Homo sapiens) with input `COc1ncc(CN2C3CC2CN(c2ccc(-c4cc(C#CC5(O)COC5)cn5ncc(C#N)c45)cn2)C3)cc1F` equals 16.8

IC50 for Ba/F3 KIF5B-RET cells (Homo sapiens) with input `CC(C)(N)C#Cc1cc(-c2ccc(N3CCC(C)(NC(=O)c4ncccc4Cl)CC3)nc2)c2c(C#N)cnn2c1` equals 15.4

IC50 for Ba/F3 KIF5B-RET cells (Homo sapiens) with input `COc1ccc(CN2C3CC2CN(c2ccc(-c4cc(OC[C@H]5C[C@@](C)(O)C5)cn5ncc(C#N)c45)cn2)C3)cn1` equals 15.3

IC50 for Ba/F3 KIF5B-RET cells (Homo sapiens) with input `COc1ncc(CN2C3CC2CN(c2ccc(-c4cc(C#CC(C)(C)O)cn5ncc(C#N)c45)cn2)C3)cc1F` equals 22.6

IC50 for Ba/F3 KIF5B-RET cells (Homo sapiens) with input `COc1ccc(CN2C3CC2CN(c2ccc(-c4cc(OCC(C)(C)C#N)cn5ncc(C#N)c45)cn2)C3)cn1` equals 28.9

IC50 for Ba/F3 KIF5B-RET cells (Homo sapiens) with input `CC1(NC(=O)c2ncccc2Cl)CCN(c2ccc(-c3cc(OCC4(C#N)CC4)cn4ncc(C#N)c34)cn2)CC1` equals 32.1

IC50 for Ba/F3 KIF5B-RET cells (Homo sapiens) with input `COc1ccc(CN2C3CC2CN(c2ccc(-c4cc(OCC56CC(C(N)=O)(C5)C6)cn5ncc(C#N)c45)cn2)C3)cn1` equals 14.8

IC50 for Ba/F3 KIF5B-RET cells (Homo sapiens) with input `COc1ncc(CN2C3CC2CN(c2ccc(-c4cc(N5CC(C)(O)C5)cn5ncc(C#N)c45)cn2)C3)cc1F` equals 12

IC50 for Ba/F3 KIF5B-RET cells (Homo sapiens) with input `COc1ncc(CN2C3CC2CN(c2ccc(-c4cc(OCC56CC(CO)(C5)C6)cn5ncc(C#N)c45)cn2)C3)cc1F` equals 5.59

IC50 for Ba/F3 KIF5B-RET cells (Homo sapiens) with input `COc1ccc(CN2C3CC2CN(c2ccc(-c4cc(OCC5(C#N)CC5)cn5ncc(C#N)c45)cn2)C3)cn1` equals 15.9

IC50 for Ba/F3 KIF5B-RET cells (Homo sapiens) with input `C#C[C@@](C)(O)COc1cc(-c2ccc(N3CC4CC(C3)N4Cc3ccc(OC)nc3)nc2)c2c(C#N)cnn2c1` equals 11.1

====

Record form. Attribute: IC50. Fill in for each entry.
Response body: numeric value in nM, unit text excluded.

IC50 for UniProtKB P35968 with input COc1ccc(CN2C3CC2CN(c2ccc(-c4cc(OCC56CC(C(N)=O)(C5)C6)cn5ncc(C#N)c45)cn2)C3)cn1 [Embodiment 66] equals 3

IC50 for UniProtKB P35968 with input COc1ccc(CN2C3CC2CN(c2ccc(-c4cc(OCC5(C#N)CC(F)(F)C5)cn5ncc(C#N)c45)cn2)C3)cn1 [Embodiment 57] equals 209

IC50 for UniProtKB P35968 with input COc1ccc(CN2C3CC2CN(c2ccc(-c4cc(OCC56CC(O)(C5)C6)cn5ncc(C#N)c45)cn2)C3)cn1 [Embodiment 47] equals 176

IC50 for UniProtKB P35968 with input COc1ccc(CN2C3CC2CN(c2ccc(-c4cc(OCC5(C#N)COC5)cn5ncc(C#N)c45)cn2)C3)cn1 [Embodiment 37] equals 60.4

IC50 for UniProtKB P35968 with input COc1ccc(CN2C3CC2CN(c2ccc(-c4cc(C#CC(C)(C)N)cn5ncc(C#N)c45)cn2)C3)cn1 [Embodiment 17] equals 8.2

IC50 for UniProtKB P35968 with input CNC(=O)C12CC(COc3cc(-c4ccc(N5CC6CC(C5)N6Cc5ccc(OC)nc5)nc4)c4c(C#N)cnn4c3)(C1)C2 [Embodiment 67] equals 4

IC50 for UniProtKB P35968 with input COc1ccc(CN2C3CC2CN(c2ccc(-c4cc(OCC5CS(=N)(=O)C5)cn5ncc(C#N)c45)cn2)C3)cn1 (stereo not shown) [Embodiment 12] equals 69

====

# system.under.test: UniProt:P35968
# Sequence (P35968 20-1356): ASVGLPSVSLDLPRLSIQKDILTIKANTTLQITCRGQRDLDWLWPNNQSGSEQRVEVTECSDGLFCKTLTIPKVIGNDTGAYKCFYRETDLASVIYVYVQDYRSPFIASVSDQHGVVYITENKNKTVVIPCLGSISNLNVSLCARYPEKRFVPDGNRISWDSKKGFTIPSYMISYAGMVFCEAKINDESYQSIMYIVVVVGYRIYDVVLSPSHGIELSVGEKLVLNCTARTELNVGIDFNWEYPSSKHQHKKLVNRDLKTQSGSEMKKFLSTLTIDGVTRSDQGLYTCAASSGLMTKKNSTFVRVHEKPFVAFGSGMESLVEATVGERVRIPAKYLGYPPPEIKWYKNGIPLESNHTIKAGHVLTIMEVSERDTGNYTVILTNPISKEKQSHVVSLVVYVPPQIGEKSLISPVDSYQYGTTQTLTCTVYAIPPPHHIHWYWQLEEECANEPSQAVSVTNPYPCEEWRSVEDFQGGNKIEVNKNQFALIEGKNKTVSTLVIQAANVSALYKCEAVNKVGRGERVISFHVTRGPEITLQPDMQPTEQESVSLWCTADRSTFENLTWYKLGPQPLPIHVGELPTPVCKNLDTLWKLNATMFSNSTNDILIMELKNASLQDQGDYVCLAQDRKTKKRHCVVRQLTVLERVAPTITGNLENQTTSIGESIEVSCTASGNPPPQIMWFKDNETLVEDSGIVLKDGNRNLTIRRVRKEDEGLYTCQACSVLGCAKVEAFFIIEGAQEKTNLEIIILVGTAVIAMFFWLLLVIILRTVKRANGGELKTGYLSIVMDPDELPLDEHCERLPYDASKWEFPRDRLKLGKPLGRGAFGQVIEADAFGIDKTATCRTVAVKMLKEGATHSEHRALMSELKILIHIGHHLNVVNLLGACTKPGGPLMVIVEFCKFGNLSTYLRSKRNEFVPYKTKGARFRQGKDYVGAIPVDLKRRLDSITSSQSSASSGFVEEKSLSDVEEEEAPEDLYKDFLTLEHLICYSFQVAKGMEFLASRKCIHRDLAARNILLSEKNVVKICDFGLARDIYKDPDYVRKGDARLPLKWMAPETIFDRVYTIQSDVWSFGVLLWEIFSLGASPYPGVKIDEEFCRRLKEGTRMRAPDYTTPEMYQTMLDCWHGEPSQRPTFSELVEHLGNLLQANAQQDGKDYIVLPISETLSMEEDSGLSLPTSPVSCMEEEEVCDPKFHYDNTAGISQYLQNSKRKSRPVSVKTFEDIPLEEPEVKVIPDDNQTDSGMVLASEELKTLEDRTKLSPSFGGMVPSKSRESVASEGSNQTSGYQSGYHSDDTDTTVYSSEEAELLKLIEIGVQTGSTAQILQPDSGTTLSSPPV
pIC50: −log10 of the molar value.
Lab note: compare pIC50 against 8. Equal or greater, write label 1. Smaller, write label 0.

[Q] Does pIC50 meet or surpass 8 for `CC1(NC(=O)c2ncccc2Cl)CCN(c2ccc(-c3cc(OCC4(N)CC4)cn4ncc(C#N)c34)cn2)CC1` ?
[A] label 0

[Q] Does pIC50 meet or surpass 8 for `COc1ccc(CN2C3CC2CN(c2ccc(-c4cc(N5CC6(C5)CC(C)(O)C6)cn5ncc(C#N)c45)cn2)C3)cn1` ?
[A] label 1

[Q] Does pIC50 meet or surpass 8 for COc1ccc(CN2C3CC2CN(c2ccc(-c4cc(N5CCC(C)(O)C5)cn5ncc(C#N)c45)cn2)C3)cn1 (stereo not shown) ?
[A] label 1

[Q] Does pIC50 meet or surpass 8 for `COc1ccc(CN2C3CC2CN(c2ccc(-c4cc(N5CC(C)(O)C5)cn5ncc(C#N)c45)cn2)C3)cn1` ?
[A] label 1

[Q] Does pIC50 meet or surpass 8 for `COc1ncc(CN2C3CC2CN(c2ccc(-c4cc(N5CC(C(C)(C)O)C5)cn5ncc(C#N)c45)cn2)C3)cc1F` ?
[A] label 0

[Q] Does pIC50 meet or surpass 8 for `COc1ccc(CN2C3CC2CN(c2ccc(-c4cc(NC(=O)C(C)(C)O)cn5ncc(C#N)c45)cn2)C3)cn1` ?
[A] label 0

[Q] Does pIC50 meet or surpass 8 for `COc1ccc(CN2C3CC2CN(c2ccc(-c4cc(NC(=O)C5(C#N)CC5)cn5ncc(C#N)c45)cn2)C3)cn1` ?
[A] label 0

[Q] Does pIC50 meet or surpass 8 for C#CC(C)(O)COc1cc(-c2ccc(N3CC4CC(C3)N4Cc3ccc(OC)nc3)nc2)c2c(C#N)cnn2c1 (stereo not shown) ?
[A] label 0

[Q] Does pIC50 meet or surpass 8 for `COc1ncc(CN2C3CC2CN(c2ccc(-c4cc(OCC5(C#N)CCOCC5)cn5ncc(C#N)c45)cn2)C3)cc1F` ?
[A] label 0

[Q] Does pIC50 meet or surpass 8 for `COc1ncc(CN2C3CC2CN(c2ccc(-c4cc(OCC5(C#N)CC5)cn5ncc(C#N)c45)cn2)C3)cc1F` ?
[A] label 0

[Q] Does pIC50 meet or surpass 8 for COc1ccc(CN2C3CC2CN(c2ccc(-c4cc(OCC[S+](C)[O-])cn5ncc(C#N)c45)cn2)C3)cn1 (stereo not shown) ?
[A] label 0

[Q] Does pIC50 meet or surpass 8 for `COc1ccc(CN2C3CC2CN(c2ccc(-c4cc(OCC56CC(C#N)(C5)C6)cn5ncc(C#N)c45)cn2)C3)cn1` ?
[A] label 0

[Q] Does pIC50 meet or surpass 8 for `CC1(NC(=O)c2ncccc2Cl)CCN(c2ccc(-c3cc(OCC4(C#N)CC4)cn4ncc(C#N)c34)cn2)CC1` ?
[A] label 0

[Q] Does pIC50 meet or surpass 8 for `COc1ncc(CN2C3CC2CN(c2ccc(-c4cc(C#CC(C)(C)O)cn5ncc(C#N)c45)cn2)C3)cc1F` ?
[A] label 0
